These entries and their values trace back to patent US20220040297A1.

target: CD3ε homodimer protein (human, UniProt P07766 23-126, limits assumed); assay: SPR, immobilized CD3ε homodimer;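 also: biacore T200 surface plasmon resonance at 25 °C, antibody variants flowed as analytes over amine-coupled CD3ε homodimer on a CM4 chip, variant binding amount divided by that of GLS3000 antibody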
Sequence (P07766 23-126 limits assumed): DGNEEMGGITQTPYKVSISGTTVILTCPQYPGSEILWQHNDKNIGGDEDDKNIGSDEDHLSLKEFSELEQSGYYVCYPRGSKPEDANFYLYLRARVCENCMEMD
Measured ratio of amounts bound (vs GLS3000) values are reported for all entries that follow.
quantity.kind: ratio of amounts bound (vs GLS3000)

GLS3000 R29P (antibody, name in Kabat numbering, V domains shown, one-arm format as m2) VH: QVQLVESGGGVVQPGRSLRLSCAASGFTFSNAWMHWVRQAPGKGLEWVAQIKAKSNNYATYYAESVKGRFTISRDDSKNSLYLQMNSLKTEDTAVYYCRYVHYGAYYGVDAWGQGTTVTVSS VL: DIVMTQSPLSLPVTPGEPASISCRSSQSLVHSNPNTYLHWYQQKPGQAPRLLIYKVSNRFSGVPDRFSGSGSGTDFTLKISRVEAEDVGVYYCGQGTQVPYTFGQGTKLEIK: 0.31
GLS3000 G89E (antibody, name in Kabat numbering, V domains shown, one-arm format as m2) VH: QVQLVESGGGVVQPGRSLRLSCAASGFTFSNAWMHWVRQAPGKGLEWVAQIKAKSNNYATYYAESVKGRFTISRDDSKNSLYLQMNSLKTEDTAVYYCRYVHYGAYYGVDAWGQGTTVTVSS VL: DIVMTQSPLSLPVTPGEPASISCRSSQSLVHSNRNTYLHWYQQKPGQAPRLLIYKVSNRFSGVPDRFSGSGSGTDFTLKISRVEAEDVGVYYCEQGTQVPYTFGQGTKLEIK: 0.26
